METHOD_NOTES: Selectivity index, ratio of IC50 for rat L6 cells to IC50 for Trypanosoma brucei rhodesiense STIB900
Format: toxicity, cell-based
CONDITION_DETAILS: read-out: Ratio IC50
Where selectivity ratio equals or exceeds 3000, the correct label is 1 (yes); where it does not, the label is 0 (no).

# example entries with known answers
COc1cc(C(=N)N)ccc1OCc1cccc(C(=N)N)c1	1 (yes)
N=C(N)c1cccc(COc2c(Br)cc(C(=N)N)cc2Br)c1	0 (no)
N=C(N)c1cccc(COc2ccc(C(=N)N)cc2Br)c1	1 (yes)

Determine whether measured selectivity ratio meets or exceeds 3000 for "Cl.Cl.Cl.Cl.N/C(=N\O)c1cccc(COc2c(Cl)cc(/C(N)=N/O)cc2Cl)c1"
0 (no)

Determine whether measured selectivity ratio meets or exceeds 3000 for "CO/N=C(\N)c1ccc(COc2ccc(/C(N)=N/OC)cc2Br)cc1.Cl.Cl"
0 (no)

Determine whether measured selectivity ratio meets or exceeds 3000 for "N=C(N)c1cccc(COc2ccc(C(=N)N)cc2Cl)c1"
0 (no)

###

METHOD_NOTES: Selectivity index, ratio of IC50 for rat L6 cells to IC50 for amastigotes of Leishmania donovani
Assay type: toxicity, cell-based
CONDITION_DETAILS: read-out: Ratio IC50
QUANTITY_NAME: selectivity ratio
Could you respond with only the numeric value?

N=C(N)c1ccc(COc2c(Br)cc(C(=N)N)cc2Br)cc1	5
N=C(N)c1cccc(COc2ccc(C(=N)N)cc2Cl)c1	5
CO/N=C(\N)c1ccc(COc2ccc(/C(N)=N/OC)cc2)cc1.Cl.Cl	2

Any idea what its selectivity ratio is? The compound is "N=C(N)c1ccc(COc2ccc(C(=N)N)cc2Br)cc1"
2

Any idea what its selectivity ratio is? The compound is "N=C(N)c1cccc(COc2c(Br)cc(C(=N)N)cc2Br)c1"
1

###

System: Leishmania donovani
METHOD_NOTES: Antileishmanial activity against amastigotes of Leishmania donovani MHOM/SD/62/IS-CL2D
Type: functional, organism-based
Items are presented alongside their recorded pIC50.
Note on units: pIC50 is unitless, being -log10 of a concentration expressed in mol/L.

N=C(N)c1ccc(COc2c(Cl)cc(C(=N)N)cc2Cl)cc1	5.19
N=C(N)c1cccc(COc2ccc(C(=N)N)cc2Cl)c1	5.54

// fetch Leishmania donovani pIC50 for "N=C(N)c1ccc(COc2c(I)cc(C(=N)N)cc2I)cc1"
5.80

// fetch Leishmania donovani pIC50 for "N=C(N)c1ccc(COc2ccc(C(=N)N)cc2Cl)cc1"
5.54

// fetch Leishmania donovani pIC50 for "N=C(N)c1cccc(COc2ccc(C(=N)N)cc2I)c1"
5.90

// fetch Leishmania donovani pIC50 for "COc1cc(C(=N)N)ccc1OCc1cccc(C(=N)N)c1"
4.54

// fetch Leishmania donovani pIC50 for "N=C(N)c1cccc(COc2c(Cl)cc(C(=N)N)cc2Cl)c1"
5.19

// fetch Leishmania donovani pIC50 for "N=C(N)c1cccc(COc2c(I)cc(C(=N)N)cc2I)c1"
5.86

###

System: Trypanosoma brucei rhodesiense
METHOD_NOTES: Antitrypanosomal activity against Trypanosoma brucei rhodesiense STIB900 infected in NMRI mouse assessed as mean survival days at 5 mg/kg, ip administered for 4 days
Format: functional
CONDITION_DETAILS: route intraperitoneal
Hi! Could you tag entries with MSD below 20 days as yes, and those at or above as no? Much appreciated.

N=C(N)c1ccc(COc2c(Br)cc(C(=N)N)cc2Br)cc1	no
Cl.Cl.N=C(N)c1cccc(COc2ccc(C(=N)N)cc2[N+](=O)[O-])c1	no
COc1cc(C(=N)N)cc(OC)c1OCc1ccc(C(=N)N)cc1.Cl.Cl	yes
COc1cc(C(=N)N)ccc1OCc1cccc(C(=N)N)c1	no
N=C(N)c1cccc(COc2c(I)cc(C(=N)N)cc2I)c1	no
COc1cc(C(=N)N)cc(OC)c1OCc1cccc(C(=N)N)c1.Cl.Cl	yes
N=C(N)c1cccc(COc2ccc(C(=N)N)cc2I)c1	no
N=C(N)c1ccc(COc2ccc(C(=N)N)cc2Br)cc1	no

Bench note: check whether "N=C(N)c1ccc(COc2c(Cl)cc(C(=N)N)cc2Cl)cc1" shows MSD below 20 days
no

Bench note: check whether "N=C(N)c1ccc(-c2ccc(-c3ccc(C(=N)N)cc3)o2)cc1" shows MSD below 20 days
no

Bench note: check whether "N=C(N)c1cccc(COc2ccc(C(=N)N)cc2Cl)c1" shows MSD below 20 days
no

###

Items are presented alongside their recorded selectivity ratio.
METHOD_NOTES: Selectivity index, ratio of IC50 for rat L6 cells to IC50 for chloroquine-resistant Plasmodium falciparum K1
Assay type: toxicity, cell-based
CONDITION_DETAILS: read-out: Ratio IC50

# annotated cases, reported selectivity ratio shown
N=C(N)c1ccc(COc2ccc(Cl)cc2)cc1	< 6
N=C(N)c1ccc(OCc2ccccc2)cc1	< 36
Cl.Cl.Cl.N/C(=N\O)c1cccc(COc2ccc(/C(N)=N/O)cc2Cl)c1	< 1
Cl.Cl.N/C(=N\O)c1ccc(COc2ccc(/C(N)=N/O)cc2)cc1	< 1
CO/N=C(\N)c1cccc(COc2c(Cl)cc(/C(N)=N/OC)cc2Cl)c1.Cl.Cl.Cl.Cl	18
N=C(N)c1ccc(COc2ccc(C(=N)N)cc2)cc1	89
N=C(N)c1cccc(OCc2cccc([N+](=O)[O-])c2)c1	< 25
N=C(N)c1cccc(COc2cccc(C(=N)N)c2)c1	198
COc1ccc(OCc2ccc(C(=N)N)cc2)cc1	< 42

// next entry
Any idea what its selectivity ratio is? The compound is "Cl.Cl.N/C(=N\O)c1cccc(COc2c(Br)cc(/C(N)=N/O)cc2Br)c1"
4

###

METHOD_NOTES: Selectivity index, ratio of IC50 for rat L6 cells to IC50 for chloroquine-resistant Plasmodium falciparum K1
Type: toxicity, cell-based
CONDITION_DETAILS: read-out: Ratio IC50
Items are presented alongside their recorded selectivity ratio.
Could you respond with only the numeric value?

CO/N=C(\N)c1cccc(COc2c(Br)cc(/C(N)=N/OC)cc2OC)c1.Cl.Cl	21

Any idea what its selectivity ratio is? The compound is "CO/N=C(\N)c1cccc(COc2c(Br)cc(/C(N)=N/OC)cc2Br)c1.Cl.Cl"
8

Any idea what its selectivity ratio is? The compound is "N=C(N)c1ccc(COc2c(Br)cc(C(=N)N)cc2Br)cc1"
849

Any idea what its selectivity ratio is? The compound is "COc1cc(C(=N)N)cc(I)c1OCc1cccc(C(=N)N)c1.Cl"
760

###

METHOD_NOTES: Selectivity index, ratio of IC50 for rat L6 cells to IC50 for amastigotes of Leishmania donovani
Format: toxicity, cell-based
CONDITION_DETAILS: read-out: Ratio IC50
QUANTITY_NAME: selectivity ratio
Could you respond with only the numeric value?

Cl.Cl.N/C(=N\O)c1cccc(COc2c(I)cc(/C(N)=N/O)cc2I)c1	2
N=C(N)c1ccc(COc2ccc(C(=N)N)cc2I)cc1	3
N=C(N)c1ccc(COc2c(I)cc(C(=N)N)cc2I)cc1	9
COc1cc(/C(N)=N/O)cc(OC)c1OCc1ccc(/C(N)=N/O)cc1.Cl.Cl	1.67

Any idea what its selectivity ratio is? The compound is "COc1cc(C(=N)N)ccc1OCc1cccc(C(=N)N)c1"
3

###

Test system: Leishmania donovani
METHOD_NOTES: Antileishmanial activity against amastigotes of Leishmania donovani MHOM/SD/62/IS-CL2D
Type: functional, organism-based
Hi! Could you tag entries with IC50 below 30 µM as 1.0, and those at or above as 0.0? Much appreciated.

# example entries with known answers
N=C(N)c1cccc(COc2ccc(C(=N)N)cc2Br)c1	1.0
Cl.Cl.N/C(=N\O)c1cccc(COc2ccc(/C(N)=N/O)cc2Br)c1	0.0

Bench note: check whether "COc1cc(/C(N)=N/O)cc(I)c1OCc1cccc(/C(N)=N/O)c1.Cl.Cl" shows IC50 below 30 µM
0.0

Bench note: check whether "Cl.Cl.N/C(=N\O)c1ccc(COc2ccc(/C(N)=N/O)cc2)cc1" shows IC50 below 30 µM
0.0

Bench note: check whether "N=C(N)c1ccc(COc2cccc(C(=N)N)c2)cc1" shows IC50 below 30 µM
0.0

###

Items are presented alongside their recorded pIC50.
System: Leishmania donovani
METHOD_NOTES: Antileishmanial activity against amastigotes of Leishmania donovani MHOM/SD/62/IS-CL2D
Assay type: functional, organism-based
pIC50: −log10 of the molar value.

# annotated cases, reported pIC50 shown
CO/N=C(\N)c1cccc(COc2c(Cl)cc(/C(N)=N/OC)cc2Cl)c1.Cl.Cl.Cl.Cl	< 4.30
CO/N=C(\N)c1cccc(COc2ccc(/C(N)=N/OC)cc2Cl)c1.Cl.Cl.Cl	< 4.00

// next entry
Any idea what its pIC50 is? The molecule is "Cl.Cl.Cl.N/C(=N\O)c1cccc(COc2ccc(/C(N)=N/O)cc2Cl)c1"
< 4.00

Where do these numbers come from? They come from ChEMBL document CHEMBL2417357.
